Source of measurements: patent US20220380314A1

Listing: IC50 of selected molecules
- Tested System: acid ceramidase (hACR) (Homo sapiens)
- Construct: expressed in transfected cells; cell lysate used
- Assay: Acid ceramidase inhibition, biochemical fluorescent assay with cell lysates overexpressing acid ceramidase, substrate Rbm14-12
- Condition Context: cell lysates overexpressing acid ceramidase; 1 hr preincubation at RT; pH 4.5; substrate Rbm14-12 6.3 μM; read-out: hACR IC50

Complete the entry with IC50 for CC1CN(C(=O)NCCCCc2ccccc2)C(C)(C)CC1=O (stereo not shown) [Example 119]
> 1000 nM

For the molecule CC1(C)c2ncccc2CCN1C(=O)NCCc1ccccc1 [Example 14] , report IC50.
> 1000 nM

Please give the documented IC50 of CC[C@H](C)NC(=O)N1C(c2ccc(OC)cc2)COCC1(C)C (mixture of isomers) [Example 155]
< 200 nM

Return reported IC50. Input molecule: O=C(NCCCc1ccccc1)N1CCCC12CCCC2 [Example 57]
> 1000 nM

Assign IC50 to the following record: CCCCCNC(=O)N1C(c2ccc(F)c(F)c2)COCC1(C)C (stereo not shown) [Example 162]
< 200 nM

Specify IC50 for CCCCNC(=O)N1c2cccc(N3CCN(C)CC3)c2CCC1(C)C [Example 33] and stop.
200 to 1000 nM

Report IC50, nothing else, for this molecule: CC1(C)CN(C(=O)OCc2ccccc2)CC(c2ccccc2)N1C(=O)NCCCCc1ccccc1 (stereo not shown) [Example 164]
> 1000 nM

* * *

Catalogue of molecules with associated solubility
- Assay: Compound solubility in water
- Type: physicochemical

CC1(C)CCCCN1C(=O)NCCc1ccccc1; 23.2 µM
COC1CCN(C(=O)NCCc2ccccc2)C(C)(C)C1 (stereo not drawn); 33.4 µM
CCCCNC(=O)N1CCC(OC2CCN(C)CC2)CC1(C)C (stereo not drawn); 34.8 µM

Return value of solubility for input O=C(NCCCc1ccccc1)N1CCOCC12CCCC2 , no commentary.
25.2 µM

Return the recorded solubility value; entry: CC1(C)CCc2cccnc2N1C(=O)NCCc1ccccc1
27.4 µM

Note solubility for the molecule shown: CCCCCNC(=O)N1[C@H](C)CN(C2CC2)C[C@@H]1C
69.1 µM

* * *

- Tested System: acid ceramidase (hACR) (Homo sapiens)
- Construct: expressed in transfected cells; cell lysate used
- Sequence (Q13510 143-395 limits assumed): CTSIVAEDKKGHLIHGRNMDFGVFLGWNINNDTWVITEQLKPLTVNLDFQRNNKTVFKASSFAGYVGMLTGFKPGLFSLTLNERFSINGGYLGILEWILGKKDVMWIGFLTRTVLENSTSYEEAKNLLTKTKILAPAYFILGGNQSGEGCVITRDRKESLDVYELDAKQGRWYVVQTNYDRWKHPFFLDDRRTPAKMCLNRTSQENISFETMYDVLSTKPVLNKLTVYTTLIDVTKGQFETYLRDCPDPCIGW
- Sequence (Q13510 22-142 limits assumed): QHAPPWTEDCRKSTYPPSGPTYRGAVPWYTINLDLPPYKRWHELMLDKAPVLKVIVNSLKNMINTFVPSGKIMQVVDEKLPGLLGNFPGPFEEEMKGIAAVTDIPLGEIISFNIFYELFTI
- Assay: Acid ceramidase inhibition, biochemical fluorescent assay with cell lysates overexpressing acid ceramidase, substrate Rbm14-12
- Condition Context: cell lysates overexpressing acid ceramidase; 1 hr preincubation at RT; pH 4.5; substrate Rbm14-12 6.3 μM; read-out: hACR IC50
pIC50: −log10 of the molar value. Counter-ions that a name gives are not always drawn.
Readout Kind: pIC50

Solved cases below.
CC1(C)CC2(CCCCO2)CCN1C(=O)NCCCCC1CC1 (centres unmarked); 6.00 to 6.70
CN1CCN(C(=O)NCCc2ccccc2)C(C)(C)C1; < 6.00
CCCCCNC(=O)N1CCN(C2CC2)C[C@@H]1C(C)C; < 6.00
CN1CC(c2cccc3c2CCC(C)(C)N3C(=O)NCc2ccccc2)C1; 6.00 to 6.70
CCCCCNC(=O)N1[C@H](C)CN(C2CC2)C[C@@H]1C; > 6.70

// fetch pIC50 for CC1(C)CCc2c(N3CCOCC3)cccc2N1C(=O)NCCc1ccccc1 ; system: acid ceramidase (hACR) (Homo sapiens)
6.00 to 6.70

Under acid ceramidase (hACR) (Homo sapiens): report pIC50 of CCCCNC(=O)N1c2ccccc2CCC1(C)C .
6.00 to 6.70

State measured pIC50 of the molecule CCCCCNC(=O)N1CCC(N2CCCCC2)CC1C (centres unmarked) with acid ceramidase (hACR) (Homo sapiens).
6.00 to 6.70

With acid ceramidase (hACR) (Homo sapiens) as the test system, provide measured pIC50 for this molecule: CN1CCN(c2cccc3c2CCC(C)(C)N3C(=O)NCCc2ccccc2)CC1
< 6.00

Write pIC50 of CCCCNC(=O)N1c2cccc(C3CCN(C)CC3)c2CCC1(C)C ; system used: acid ceramidase (hACR) (Homo sapiens)
6.00 to 6.70

Provide the reported pIC50 (system: acid ceramidase (hACR) (Homo sapiens)) for CCCCCNC(=O)N1C(c2ccc(F)cc2)CN(C)CC1(C)C (centres unmarked) [Example 167, hydrochloride]
> 6.70
